Give IC50 for every item shown.
Molecular target: CGRP1 receptor (CRLR/RAMP1 complex) of human neuroblastoma SK-N-MC cells (human, UniProt Q16602 23-461; O60894 27-148)
Sequence (Q16602 23-461, chain 1 of 2): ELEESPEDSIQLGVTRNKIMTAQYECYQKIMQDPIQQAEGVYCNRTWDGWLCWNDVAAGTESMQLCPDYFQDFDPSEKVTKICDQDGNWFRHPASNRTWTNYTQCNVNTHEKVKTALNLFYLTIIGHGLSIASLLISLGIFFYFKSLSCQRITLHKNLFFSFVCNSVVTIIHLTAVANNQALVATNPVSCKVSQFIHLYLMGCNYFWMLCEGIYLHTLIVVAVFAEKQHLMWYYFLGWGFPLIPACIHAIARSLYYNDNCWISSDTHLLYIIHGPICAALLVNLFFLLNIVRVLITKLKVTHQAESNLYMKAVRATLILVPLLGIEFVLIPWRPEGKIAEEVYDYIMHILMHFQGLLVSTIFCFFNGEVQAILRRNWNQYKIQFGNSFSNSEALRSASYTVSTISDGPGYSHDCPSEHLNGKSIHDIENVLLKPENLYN
Sequence (O60894 27-148, chain 2 of 2): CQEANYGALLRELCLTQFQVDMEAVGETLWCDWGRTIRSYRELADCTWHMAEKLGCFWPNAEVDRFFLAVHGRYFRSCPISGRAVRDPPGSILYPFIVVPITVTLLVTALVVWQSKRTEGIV
Assay: cell-based or functional assay
Answers are plain numbers, in nM.

# binder, scale_unit, readout_number
rows = [
    ("WVTHXLAGLLSXSGGVVXKNXVPTDVGXFAX (Ac-WVTH[Cit]LAGLLS[Cit]SGGVV[hArg]KN[2-Nal]VPTDVG[Oic]FA[2-Nal]-NH2) [SEQ ID NO 138]", "nM", 3.45),
]

Query: Please give measured IC50 of the following entry: WVTHXLAGLLSXSGGVVXKNFVPTDVGPXAF (Ac-WVTH[Cit]LAGLLS[Cit]SGGVV[hArg]KNFVPTDVGP[Tic]AF-NH2) [SEQ ID NO 131]
Reply: 89.9
